Recorded values, source PubChem BioAssay AID504332.

# ASSAY_SYSTEM: Histone-lysine N-methyltransferase EHMT2 (Homo sapiens) (UniProt Q96KQ7)
# Sequence (Q96KQ7 913-1193 limits assumed): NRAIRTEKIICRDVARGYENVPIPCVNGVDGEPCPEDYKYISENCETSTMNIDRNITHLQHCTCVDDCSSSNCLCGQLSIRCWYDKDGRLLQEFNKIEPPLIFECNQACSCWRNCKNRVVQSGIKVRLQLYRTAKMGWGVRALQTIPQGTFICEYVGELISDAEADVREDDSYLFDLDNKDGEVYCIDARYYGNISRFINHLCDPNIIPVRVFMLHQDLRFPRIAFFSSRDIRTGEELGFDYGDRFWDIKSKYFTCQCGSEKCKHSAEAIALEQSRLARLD
# PROTOCOL_TEXT: qHTS Assay for Inhibitors of Histone Lysine Methyltransferase G9a; also: nearly all actives have a fitted effect of over 75% in size; also: potency is read from the fitted curve at half-maximal effect
# CONDITIONS_USED: G9a H3K9 monomethylation, AlphaScreen, 2 h; series mostly up to 59 µM
The campaign covered roughly 350,000 compounds. About 31,000 (8.9%) were called active. Not shown: some 15% with an inconclusive outcome. This excerpt belongs to a sample that is enriched for actives.
MEASURED_PROPERTY: Potency

Look over these answered cases.
O=C(Cc1ccc([N+](=O)[O-])cc1)Nc1ccc(C(=O)N2CCOCC2)cc1    inactive
CNc1ccc([N+](=O)[O-])cc1C(=O)O    inactive
COc1ccccc1CNc1nc2ccc(Cl)cc2n2cnnc12    inactive
Cc1ccccc1OCC(=O)NNC(=O)c1ccc(-n2cncn2)c([N+](=O)[O-])c1    inactive
O=C(COC(=O)CCCN1C(=O)c2cccc3cccc(c23)C1=O)NC1CCS(=O)(=O)C1 (stereo unspecified)    inactive

For each of the items listed, what is its Potency?
1. COc1ccc(OCC(=O)N2CCN(C(=O)c3cccs3)CC2)cc1
2. Cc1cc(=O)c2cc(C(=O)Nc3cccc(C)c3C)ccc2[nH]1
3. COCC1CCN(C(=O)c2ccc3oc(Cc4ccccc4)nc3c2)C1 (stereo unspecified)
4. Nc1nc(SCC(=O)NNc2c(Cl)cc(Cl)cc2Cl)n[nH]1

1: inactive; 2: inactive; 3: inactive; 4: 10 µM (active)

For each of the items listed, what is its Potency?
1. CCOC(=O)c1c(-c2ccc(OC)cc2)oc2ccc(OCc3ccc(C(=O)OC)cc3)cc12
2. O=C(Nc1ccc(N2CCOCC2)cc1)c1ccc(-c2ccccc2[N+](=O)[O-])o1

inactive
17.8 µM (active)

---

# ASSAY_SYSTEM: Histone-lysine N-methyltransferase EHMT2 (Homo sapiens) (UniProt Q96KQ7)
# PROTOCOL_TEXT: qHTS Assay for Inhibitors of Histone Lysine Methyltransferase G9a; also: nearly all actives have a fitted effect of over 75% in size
# CONDITIONS_USED: G9a H3K9 monomethylation, AlphaScreen, 2 h; series mostly up to 59 µM
# Description: Methylated lysines, on the N-terminal tails of histone proteins serve as epigenetic markers to recruit factors that can then modify local chromatin structure to lead to functional consequences. […] Methylation of biotinylated-histone peptide is measured through specific antibody-based detection, in conjunction with streptavidin-coated donor and anti-IgG antibody-coated acceptor beads. […]
Hit rate of the full screen: of about 350,000 compounds, about 31,000 (8.9%) were called active. Inconclusive results (about 15%) are left out. The call rests on the fitted dose curve; in most records, active means well fitted inhibition curve with a large enough effect; inconclusive means small, poorly fitted or top-dose-only effect; inactive means no such curve, though single readings can be large or run the other way. The list comes from a sample in which actives are over-represented; it also holds close analogues and randomly drawn compounds.
Hello, when you answer, please use one of the following outcomes: true (1) for active, false (0) for inactive

O=C(O)C1OC(C(=O)O)C2C1C(F)(F)C2(F)F (configuration not stated)    true (1)
COc1ccc(C)cc1-n1nnnc1SCc1nc2ccccc2c(=O)[nH]1    false (0)
CCCc1nn2c(=O)cc(COC(=O)c3ccc(NC(=O)COc4ccc(F)cc4)cc3)nc2s1    false (0)

Kindly provide the recorded test outcome for the following compound: CCCn1c(O)c(CN2CCCC(C)C2)c(C)c(C#N)c1=O (configuration not stated)
true (1)

Kindly provide the recorded test outcome for the following compound: Cc1ccc(NC(=O)C2CC(c3ccc(F)cc3)=NO2)cc1 (configuration not stated)
false (0)

Kindly provide the recorded test outcome for the following compound: CCN(c1ccc(NC(=O)COC(=O)CCc2nc3ccccc3n2-c2ccccc2)cc1)C(C)C
true (1)

Kindly provide the recorded test outcome for the following compound: COc1ccc(COC(=O)c2ccc(Cl)c(S(=O)(=O)N3CCOCC3)c2)cc1F
false (0)

Kindly provide the recorded test outcome for the following compound: O=C(C1CC(=O)N(C2CCCC2)C1)N1CCN(c2cccc(C(F)(F)F)c2)CC1 (configuration not stated)
false (0)

Kindly provide the recorded test outcome for the following compound: COc1ccccc1-c1cc2nc(C)c(CCC(=O)NC3CCCCC3)c(C)n2n1
false (0)

Kindly provide the recorded test outcome for the following compound: Cn1ccsc1=NC(=O)c1cc(S(=O)(=O)N2CCOCC2)ccc1Cl
false (0)

Kindly provide the recorded test outcome for the following compound: O=C(NCc1ccccc1Cl)c1ccc2c(=O)n(CC3CCCO3)c(=S)[nH]c2c1 (configuration not stated)
false (0)

Kindly provide the recorded test outcome for the following compound: Cc1cccc(N=C2NC(=O)/C(=C/c3cn(C)c4ccccc34)S2)c1
true (1)
